The origin of these recorded values is patent US20240301052A1.

- TARGET: T1, human SLC34A2 (human, UniProt O95436 1-690)
- T1 construct: whole, on cells; also called human solute carrier 34 A2; NaPi2b
- T1 sequence (looked up): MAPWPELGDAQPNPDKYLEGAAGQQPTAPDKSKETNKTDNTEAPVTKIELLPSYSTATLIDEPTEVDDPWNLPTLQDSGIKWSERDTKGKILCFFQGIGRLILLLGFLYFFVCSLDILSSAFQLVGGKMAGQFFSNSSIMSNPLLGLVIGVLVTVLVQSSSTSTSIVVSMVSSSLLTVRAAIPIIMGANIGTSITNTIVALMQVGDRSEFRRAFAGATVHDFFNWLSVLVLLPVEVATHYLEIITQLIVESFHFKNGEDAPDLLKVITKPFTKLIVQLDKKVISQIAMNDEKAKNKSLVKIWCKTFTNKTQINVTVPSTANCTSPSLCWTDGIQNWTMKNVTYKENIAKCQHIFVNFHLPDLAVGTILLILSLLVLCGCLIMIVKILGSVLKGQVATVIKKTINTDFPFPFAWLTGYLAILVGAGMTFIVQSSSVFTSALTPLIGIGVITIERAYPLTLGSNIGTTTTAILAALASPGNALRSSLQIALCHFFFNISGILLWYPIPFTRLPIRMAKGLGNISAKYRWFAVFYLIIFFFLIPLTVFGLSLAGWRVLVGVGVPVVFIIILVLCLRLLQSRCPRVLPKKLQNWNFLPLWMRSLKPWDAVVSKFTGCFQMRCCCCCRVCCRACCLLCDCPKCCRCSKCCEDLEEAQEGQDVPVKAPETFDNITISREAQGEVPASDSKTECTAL
- PROCEDURE_TEXT: FACS, OVCAR3 cells
Catalogue of binders with associated Top (MFI)
REPORTED_ENDPOINT: Top (MFI)

BINDER: 91C9F1.p1.z10 hIgG1 (antibody, V domains shown, humanized hIgG1) VH: QVQLVQSGAEVVKPGSSVKVSCKTSGFFFTEYIIHWVRQSPGQGLEWIGGIIPNNDVTNYKQNFRGRATLTADKSTSTAYMELSSLRSEDTAVYYCARWRNAYYSAMDSWGQGTTVTVSS VL: DIQMTQSPSSLSTSVGDRVTITCTASQDVGTAVAWYQQKPGKSPKLLIYWASTRHTGVPERFSGSGSGTDFTLTISSLQPEDVATYFCQQYRTSPLTFGGGTKVEIK
QUANTITATIVE_RESULT: 38100

BINDER: 91C9F1.p1.z3 hIgG1 (antibody, V domains shown, humanized hIgG1) VH: QVQLVQSGAEVKKPGSSVKVSCKASGFFFTEYIIHWVRQAPGQGLEWMGGIIPNNDVTNYKQNFRGRVTITADESTSTAYMELSSLRSEDTAVYYCARWRNAYYSAMDSWGQGTTVTVSS VL: DIQVTQSPSSLSTSVGDRVTITCTASQDVGTAVAWYQQKPGKSPKLLIYWASTRHTGVPERFTGSGSGTDFTLTISSVQPEDVATYFCQQYRTSPLTFGVGTKVEIK
QUANTITATIVE_RESULT: 35500

BINDER: 91C9F1.p1.z4 hIgG1 (antibody, V domains shown, humanized hIgG1) VH: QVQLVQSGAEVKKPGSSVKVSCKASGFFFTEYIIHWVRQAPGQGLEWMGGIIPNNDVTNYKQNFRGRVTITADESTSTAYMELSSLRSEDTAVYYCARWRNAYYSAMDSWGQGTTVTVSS VL: DIVVTQSPSSLSTSVGDRVTITCTASQDVGTAVAWYQQKPGKSPKLLIYWASTRHTGVPERFTGSGSGTDFTLTISSVQPEDVATYFCQQYRTSPLTFGVGTKLELK
QUANTITATIVE_RESULT: 34600

BINDER: 91C9F1.p1.z8 hIgG1 (antibody, V domains shown, humanized hIgG1) VH: QVQLVQSGAEVKKPGSSVKVSCKTSGFFFTEYIIHWVRQAPGQGLEWIGGIIPNNDVTNYKQNFRGRVTLTADKSTSTAYMELSSLRSEDTAVYYCARWRNAYYSAMDSWGQGTTVTVSS VL: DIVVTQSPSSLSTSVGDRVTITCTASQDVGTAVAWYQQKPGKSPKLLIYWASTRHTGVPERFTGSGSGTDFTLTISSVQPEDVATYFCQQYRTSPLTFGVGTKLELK
QUANTITATIVE_RESULT: 35700

BINDER: 91C9F1.p1.z12 hIgG1 (antibody, V domains shown, humanized hIgG1) VH: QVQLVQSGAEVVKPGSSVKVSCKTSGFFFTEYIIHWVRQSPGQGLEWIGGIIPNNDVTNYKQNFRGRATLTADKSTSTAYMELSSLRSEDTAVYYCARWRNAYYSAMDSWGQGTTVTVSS VL: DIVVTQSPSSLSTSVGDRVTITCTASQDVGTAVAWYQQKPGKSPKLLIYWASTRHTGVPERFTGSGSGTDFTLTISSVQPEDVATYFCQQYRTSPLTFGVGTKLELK
QUANTITATIVE_RESULT: 34500

BINDER: 91C9F1.p1.z6 hIgG1 (antibody, V domains shown, humanized hIgG1) VH: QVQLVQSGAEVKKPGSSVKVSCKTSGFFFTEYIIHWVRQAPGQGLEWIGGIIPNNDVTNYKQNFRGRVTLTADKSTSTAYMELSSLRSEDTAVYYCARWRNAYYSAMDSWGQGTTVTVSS VL: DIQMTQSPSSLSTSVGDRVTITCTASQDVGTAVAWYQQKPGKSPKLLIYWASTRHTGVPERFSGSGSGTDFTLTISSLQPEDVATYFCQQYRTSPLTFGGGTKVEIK
QUANTITATIVE_RESULT: 36100

BINDER: xi91C9F1 hIgG1 (antibody, V domains shown, chimeric, hIgG1) VH: EVQLQQSGPELVKPGTSVKISCKTSGFFFTEYIIHWVKQSHGRSLEWIGGIIPNNGVTNYKQNFRGKAALTADKSSNTAYMELRSLTSEDSAVYYCARWRNGYYSAMDSWGQGTSVTVSS VL: DIVVTQSHKFMSTSLGDRVSITCTASQDVGTAVAWYQQKPGHSPKLLIYWASTRHTGVPERFTGSGSGTDFTLTITNVQSEDLADYFCQQYRTSPLTFGVGTKLELK
QUANTITATIVE_RESULT: 32100
